tested on: MALME-3M melanoma; experiment: NCI-60 one-dose screen, 48 h (100 = growth as untreated, 0 = no growth, -100 = all killed); conditions: 10 µM unless noted
Compounds without any hit were thinned out: in the full panel of roughly 83,000, 20% have a hit.
metric name: growth (%)

molecule	metric name	reported value
CC(C)(C)CC(C)(C)Cc1ccc(OCCOCC[N+](C)(C)Cc2ccccc2)cc1	growth	-40.2
COC(=O)c1ccc(NC(=O)CSc2nc(-c3ccc(F)cc3)nc3ccccc23)cc1	growth	60.9
O=C(Nc1nccs1)c1noc2ccccc12	growth	96.8
COc1ccc(NC(=O)Nc2ccc(Nc3nc(C)cc(Nc4ccc(C)cc4)n3)cc2)cc1	growth	-78.7
Cc1nc2sc(C(=O)Nc3ccccc3)c(N)c2cc1C(C)O (stereo unspecified)	growth	64.2
O=c1[nH]c2ccccc2cc1-c1nc2ccncc2[nH]1	growth	113
C=C(C)[C@@H]1CC[C@]2(C(N)=O)CC[C@]3(C)[C@H](CC[C@@H]4[C@@]5(C)CCCNC(C)(C)[C@@H]5CC[C@]43C)[C@@H]12	growth	75
Nc1n[nH]c2cccc(C#Cc3cccc(NC(=O)c4cc(N5CCOCC5)cc(C(F)(F)F)c4)c3)c12	growth	-18.1
CCCCn1c(=O)c(/C=C/C(=O)/C=C/c2ccc(OC)cc2)cc2cc(Cl)ccc21	growth	119
COc1ccccc1C(=O)/C=C/c1cc2cccc(OC)c2[nH]c1=O	growth	-0.686
C=C(C)[C@@H]1CC[C@]2(C(=O)O)CC[C@]3(C)[C@H](CC[C@@H]4[C@@]5(C)C[C@@H](CC#Cc6ccc(Cl)cc6)C(=O)C(C)(C)[C@@H]5CC[C@]43C)[C@@H]12	growth	21.2
CC1(C)Cc2c(Br)c(Br)c(Br)c(OCC(O)CN3CCOCC3)c2O1 (stereo unspecified)	growth	35
CCC1=C[C@H]2CN(CCc3c([nH]c4ccccc34)[C@@](C(=O)OC)(c3cc4c(cc3OC)N(C)[C@H]3[C@@](O)(C(=O)OC)[C@H](OC(C)=O)[C@]5(CC)[C@@H]6C[C@@H]6CN6CC[C@]43[C@@H]65)C2)C1	growth	37.3
COc1cc2cc(c1Cl)N(C)C(=O)C[C@H](OC(=O)[C@H](C)N(C)C(=O)CCS)C[C@]1(C)O[C@H]1[C@H](C)[C@@H]1C[C@@](O)(NC(=O)O1)[C@H](OC)/C=C/C=C(\C)C2	growth	64.3
COc1ccc(OCC(=O)OC(C)C)cc1	growth	91.1
CC1CCN(CCCCCOc2ccc3oc4ccccc4c(=O)c3c2)CC1	growth	44.4
C#CCN(CCCOc1ccc(Cl)cc1Cl)CCCSC(=O)CCCCCN1/C(=C\C=C2/CCCC(/C=C/C3=[N+](CCCCCC(=O)[O-])c4ccccc4C3(C)C)=C2Cl)C(C)(C)c2ccccc21	growth	-56.2
C=C1C(=O)O[C@H]2[C@H]1CC/C(COC(=O)N1CCC[C@H]1C(=O)Nc1ccc(OC)c(C(N)=O)c1O)=C\CC[C@@]1(C)O[C@@H]21	growth	27.3
C#C[C@@]1(O)[C@@H](CO)O[C@@H](n2cnc3c(-c4ccccc4)ncnc32)[C@@H]1O	growth	103
CC(=O)c1cnc(-c2ccccc2)nc1CBr	growth	55.8
O=CN1N=C(c2ccc(Cl)cc2)CC1c1cccc(Nc2ccnc3cc(C(F)(F)F)ccc23)c1 (stereo unspecified)	growth	77.5
COc1c(O)cc2oc3cc(O[C@@H]4OC(C)[C@@H](O)[C@H](O)C4O)c(CC=C(C)C)c(O)c3c(=O)c2c1CC=C(C)C (stereo partly specified)	growth	103
Cc1[nH]c2ncnc(Oc3ccc(NC(=O)Nc4ccc(Cl)c(C(F)(F)F)c4)cc3)c2c1C	growth	61.6
O=C1Nc2ccc(Cl)cc2/C1=N/c1nc(-c2ccc(F)cc2)cs1	growth	53.6
COc1ccc([C@H]2[C@@H](F)C(=O)N2c2cc(OC)c(OC)c(OC)c2)cc1F	growth	74
CC(=O)c1cc2c(N)c(C(=O)Nc3ccccn3)sc2nc1C	growth	90.1
Cc1nccc2c3ccc(OCc4cn(-c5ccccc5)nn4)cc3n(CCCc3ccccc3)c12	growth	90.4
Cc1nc2sc(C(=O)Nc3cccc(Cl)c3C)c(N)c2cc1C(C)O (stereo unspecified)	growth	71
Nc1c(C(=O)Nc2cccc3ccccc23)sc2nc3c(cc12)CCCCCC3	growth	75.9
CCCCc1n(Cc2ccc3ccccc3c2)c2ccccc2[n+]1Cc1ccc2ccccc2c1	growth	-86.2
COc1ccc(-c2[nH]c3ccc(OC)cc3c2C=C(C#N)C#N)cc1	growth	60
